Tested System: Mcm2–7 complex
Experimental Protocol: thermal shift assay

>  <Molecule>
CNC(=O)c1cc2c(cn1)[nH]c1ccccc12 [CMA]

>  <Kd [µM]>
119

$$$$

Provenance of the data: paper PMC9196137
